Molecular target: T1, His-tagged pUL50 (HCMV groove protein, soluble recombinant) (human cytomegalovirus (HCMV)), P16791
T1 chain: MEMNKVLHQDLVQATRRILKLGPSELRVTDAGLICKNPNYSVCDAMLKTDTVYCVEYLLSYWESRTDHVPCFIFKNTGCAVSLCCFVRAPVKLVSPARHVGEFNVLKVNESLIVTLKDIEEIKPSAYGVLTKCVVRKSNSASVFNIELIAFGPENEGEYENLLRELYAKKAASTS
Assay: competitive ELISA, inhibition of His-tagged pUL50 binding to coated pUL53
Non-standard residues stand in square brackets, D forms with d. *: point of attachment. Bio = O=C1N[C@H]2[C@H](CS[C@H]2CCCCC(=O)*)N1; Aoa = not defined here
Can you tell me IC50 for the items I'm about to list?
Just the number please, in nM, no unit attached.

Identify IC50 associated with the binder LTLHDLHDIFREHPELELKYLNMMKMAITK (modifications not checked) [HCMV hook peptide (Ac-pUL53 59-87-Aoa-Lys(Bio)-NH2)]
114

Identify IC50 associated with the binder Ac-SHFSLRDFFRGISANFELGKDFLREMNTP[Aoa]K(Bio)-NH2 (reading uncertain) [EBV hook peptide (Ac-BFLF2 80-108-Aoa-Lys(Bio)-NH2)]
2600

Values compiled from patent US20210396761A1.
